Molecular target: VchCAα (Vibrio cholerae serotype O1, UniProt Q9KMP6)
Construct: made in house; host or cells: E. coli BL21 DE3
Sequence (Q9KMP6 21-239): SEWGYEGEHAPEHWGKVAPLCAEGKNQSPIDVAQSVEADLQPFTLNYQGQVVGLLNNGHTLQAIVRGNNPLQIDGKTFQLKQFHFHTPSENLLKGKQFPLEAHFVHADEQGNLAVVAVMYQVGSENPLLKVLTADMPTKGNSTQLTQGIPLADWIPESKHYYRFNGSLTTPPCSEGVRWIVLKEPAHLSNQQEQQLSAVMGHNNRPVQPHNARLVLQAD
Experiment: stopped flow CO2 hydrase assay, VchCAα
Assay type: biochemical
Details: Ki VchCAα, stopped flow CO2 hydrase assay; mean from three different assays
# binning rule on Ki: group 1 = under 90 nM, group 2 = from 90 nM up to 300 nM, group 3 = 300 nM and over

Previously resolved entries follow.
{"columns": ["compound", "assignedLabel"],
 "data": [
  ["NS(=O)(=O)c1ccc(C(=O)N2CCC(O)(c3ccc(Br)cc3)CC2)cc1", "group 1"],
  ["NS(=O)(=O)c1ccc(C(=O)N2CCC(Cc3ccccc3)CC2)cc1", "group 2"],
  ["NS(=O)(=O)c1ccc(C(=O)N2CCCCCC2)cc1 [6a, 4-(Azepane-1-carbonyl)benzenesulfonamide]", "group 2"],
  ["NS(=O)(=O)c1ccc(C(=O)N2CCC(c3ccccc3)CC2)cc1", "group 1"],
  ["NS(=O)(=O)c1ccc(C(=O)N2CCC(O)(c3ccccc3)CC2)cc1", "group 2"],
  ["NS(=O)(=O)c1ccc(C(=O)N2CCC(O)(c3ccc(Cl)cc3)CC2)cc1", "group 1"]
]}

stdin: Band for CC1CCCN(C(=O)c2ccc(S(N)(=O)=O)cc2)C1 (stereo not drawn) ?
stdout: group 3

stdin: Param item: NS(=O)(=O)c1ccc(C(=O)N2CCN(Cc3ccccc3)CC2)cc1
stdout: group 3

stdin: Param item: NS(=O)(=O)c1ccc(C(=O)N2CCN(Cc3ccc(F)cc3)CC2)cc1
stdout: group 2

stdin: Param item: NS(=O)(=O)c1ccc(C(=O)N2CCN(C(c3ccccc3)c3ccccc3)CC2)cc1
stdout: group 2

stdin: Param item: NS(=O)(=O)c1ccc(C(=O)N2CCN(c3ccccc3)CC2)cc1
stdout: group 1

stdin: Param item: CC1CCN(C(=O)c2ccc(S(N)(=O)=O)cc2)CC1
stdout: group 3

stdin: Param item: NS(=O)(=O)c1ccc(C(=O)N2CCCCC2)cc1
stdout: group 3

---

Target: VchCAγ (Vibrio cholerae)
Sequence (Q9KVT1 entry or part of it): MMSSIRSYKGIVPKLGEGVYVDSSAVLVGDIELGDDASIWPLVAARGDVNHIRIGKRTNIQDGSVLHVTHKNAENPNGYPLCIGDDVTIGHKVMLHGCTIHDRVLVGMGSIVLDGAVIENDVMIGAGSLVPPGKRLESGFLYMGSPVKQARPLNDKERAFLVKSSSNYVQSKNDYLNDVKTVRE
measurementLabel: Ki

{"columns": ["compound", "endpointResult"],
 "data": [
  ["NS(=O)(=O)c1ccc(C(=O)N2CCN(C(c3ccccc3)c3ccccc3)CC2)cc1 [8c]", "> 10 µM"],
  ["NS(=O)(=O)c1ccc(C(=O)N2CCCCCC2)cc1 [6a, 4-(Azepane-1-carbonyl)benzenesulfonamide]", "> 10 µM"],
  ["NS(=O)(=O)c1ccc(C(=O)N2CCC(Cc3ccccc3)CC2)cc1 [5e]", "> 10 µM"],
  ["NS(=O)(=O)c1ccc(C(=O)N2CCN(Cc3ccccc3)CC2)cc1 [8a]", "> 10 µM"],
  ["NS(=O)(=O)c1ccc(C(=O)N2CCC(O)(c3ccccc3)CC2)cc1 [7b]", "> 10 µM"],
  ["N#CC1(c2ccccc2)CCN(C(=O)c2ccc(S(N)(=O)=O)cc2)CC1 [7e]", "> 10 µM"]
]}

stdin: // Ki lookup, key: NS(=O)(=O)c1ccc(C(=O)N2CCC(O)(c3ccc(Br)cc3)CC2)cc1 [7d]
stdout: > 10 µM

stdin: Param item: NS(=O)(=O)c1ccc(C(=O)N2CCC(O)(c3ccc(Cl)cc3)CC2)cc1 [7c]
stdout: > 10 µM

stdin: Param item: NS(=O)(=O)c1ccc(C(=O)N2CCN(c3ccccc3)CC2)cc1 [8d]
stdout: > 10 µM

---

Target: VchCAβ (Vibrio cholerae, UniProt A0A086SLX8)
Sequence (A0A086SLX8 entry or part of it): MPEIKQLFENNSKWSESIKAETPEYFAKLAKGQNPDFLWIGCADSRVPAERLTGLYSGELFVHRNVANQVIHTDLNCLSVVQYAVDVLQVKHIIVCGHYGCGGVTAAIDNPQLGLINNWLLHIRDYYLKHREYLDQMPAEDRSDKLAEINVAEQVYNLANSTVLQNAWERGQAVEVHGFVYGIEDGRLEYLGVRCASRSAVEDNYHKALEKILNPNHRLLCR
Assay: stopped flow CO2 hydrase assay, VchCAβ
Format: biochemical
Settings: qualitative statement
measurementLabel: inhibitory activity toward VchCAβ (in words)

{"columns": ["molecule", "measuredTarget", "endpointResult"],
 "data": [
  ["NS(=O)(=O)c1ccc(C(=O)N2CCN(C(c3ccccc3)c3ccccc3)CC2)cc1", "VchCAβ (Vibrio cholerae, UniProt A0A086SLX8)", "moderate inhibitors"],
  ["NS(=O)(=O)c1ccc(C(=O)N2CCN(c3ccccc3)CC2)cc1", "VchCAβ (Vibrio cholerae, UniProt A0A086SLX8)", "moderate inhibitors"],
  ["NS(=O)(=O)c1ccc(C(=O)N2CCN(Cc3ccc(F)cc3)CC2)cc1", "VchCAβ (Vibrio cholerae, UniProt A0A086SLX8)", "moderate inhibitors"]
]}

---

measurementLabel: melting point

These recorded examples may help you get a feel for the data.
{"columns": ["compound", "melting point"],
 "data": [
  ["NS(=O)(=O)c1ccc(C(=O)N2CCN(Cc3ccccc3)CC2)cc1 [8a]", "204 to 205 °C"],
  ["NS(=O)(=O)c1ccc(C(=O)N2CCC(O)(c3ccc(Br)cc3)CC2)cc1 [7d]", "219 to 220 °C"],
  ["NS(=O)(=O)c1ccc(C(=O)N2CCC(O)(c3ccc(Cl)cc3)CC2)cc1 [7c]", "215 to 217 °C"]
]}

stdin: // melting point lookup, key: N#CC1(c2ccccc2)CCN(C(=O)c2ccc(S(N)(=O)=O)cc2)CC1 [7e]
stdout: 285 to 286 °C

stdin: Param item: NS(=O)(=O)c1ccc(C(=O)N2CCN(Cc3ccc(F)cc3)CC2)cc1 [8b]
stdout: 206 to 207 °C

stdin: Param item: CC1CCN(C(=O)c2ccc(S(N)(=O)=O)cc2)CC1 [5d]
stdout: 212 to 213 °C

stdin: Param item: NS(=O)(=O)c1ccc(C(=O)N2CCC(O)(c3ccccc3)CC2)cc1 [7b]
stdout: 135 to 137 °C

stdin: Param item: NS(=O)(=O)c1ccc(C(=O)N2CCC(Cc3ccccc3)CC2)cc1 [5e]
stdout: 156 to 157 °C

stdin: Param item: NS(=O)(=O)c1ccc(C(=O)N2CCC(c3ccccc3)CC2)cc1 [7a]
stdout: 222 to 223 °C

---

Biological target: VchCAα (Vibrio cholerae serotype O1)
Construct: made in house; host or cells: E. coli BL21 DE3
Assay: stopped flow CO2 hydrase assay, VchCAα
Type: biochemical
Details: stopped flow CO2 hydrase assay; mean from three different assays; read-out: Ki VchCAα
measurementLabel: Ki (nM)
Response body: numeric value in nM, unit text excluded.

stdin: Find the measured Ki: item CC(=O)C1(c2ccccc2)CCN(C(=O)c2ccc(S(N)(=O)=O)cc2)CC1 , target or system VchCAα (Vibrio cholerae serotype O1).
stdout: 72.1
